- System: Epidermal growth factor receptor (Homo sapiens), P00533 [L861Q]
- Sequence (P00533 whole entry L861Q): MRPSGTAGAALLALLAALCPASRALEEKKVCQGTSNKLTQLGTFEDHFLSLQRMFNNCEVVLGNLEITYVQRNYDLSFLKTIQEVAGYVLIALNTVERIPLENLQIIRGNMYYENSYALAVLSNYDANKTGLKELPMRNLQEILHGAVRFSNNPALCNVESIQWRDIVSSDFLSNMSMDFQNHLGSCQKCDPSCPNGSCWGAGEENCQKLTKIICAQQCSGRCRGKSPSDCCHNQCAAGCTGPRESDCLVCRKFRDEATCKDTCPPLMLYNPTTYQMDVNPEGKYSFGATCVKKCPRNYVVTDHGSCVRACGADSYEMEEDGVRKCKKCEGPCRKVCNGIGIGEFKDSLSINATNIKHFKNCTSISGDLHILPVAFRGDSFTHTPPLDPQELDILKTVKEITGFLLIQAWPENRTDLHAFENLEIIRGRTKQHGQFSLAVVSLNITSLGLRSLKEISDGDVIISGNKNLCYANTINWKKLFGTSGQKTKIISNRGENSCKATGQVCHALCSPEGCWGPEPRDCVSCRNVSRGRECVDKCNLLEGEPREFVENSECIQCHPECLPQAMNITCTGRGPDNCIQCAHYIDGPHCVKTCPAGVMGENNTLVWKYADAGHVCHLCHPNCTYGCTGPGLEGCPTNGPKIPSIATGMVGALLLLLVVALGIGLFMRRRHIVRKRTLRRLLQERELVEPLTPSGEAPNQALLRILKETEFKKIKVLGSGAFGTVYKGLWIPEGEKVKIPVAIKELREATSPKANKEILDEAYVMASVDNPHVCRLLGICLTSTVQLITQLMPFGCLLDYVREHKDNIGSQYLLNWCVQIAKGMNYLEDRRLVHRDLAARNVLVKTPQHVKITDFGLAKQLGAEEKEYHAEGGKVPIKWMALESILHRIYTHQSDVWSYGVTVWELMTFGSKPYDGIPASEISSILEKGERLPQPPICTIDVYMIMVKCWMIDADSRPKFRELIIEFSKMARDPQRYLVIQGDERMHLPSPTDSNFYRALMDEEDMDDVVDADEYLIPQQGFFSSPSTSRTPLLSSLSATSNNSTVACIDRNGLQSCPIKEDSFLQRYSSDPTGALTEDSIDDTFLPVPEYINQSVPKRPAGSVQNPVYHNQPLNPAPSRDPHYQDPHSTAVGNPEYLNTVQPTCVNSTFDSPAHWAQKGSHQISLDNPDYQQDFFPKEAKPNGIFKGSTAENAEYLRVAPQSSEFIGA
- Cond: at 1 µM
Quick reference: inhibition of the listed items.
Please respond with the number in % and leave the unit unwritten.

COc1cc(N2CCN(C(C)C)CC2)ccc1Nc1nc(Nc2ccc(F)cc2C(N)=O)c2cc[nH]c2n1 = 23.1
Cc1cccc(Nc2ncc(-c3ccccc3)o2)c1 = 1.8
COc1ccc2[nH]c3c4[nH]c5ccc(OC)cc5c4c4c(c3c2c1)C(=O)NC4=O = 21.2
COC(=O)Nc1nc2ccc(Oc3ccc(NC(=O)Nc4cccc(Cl)c4)cc3)cc2[nH]1 = -0.8
Fc1ccc(-c2nn3ncccc3c2-c2ccnc(Nc3ccc4c(c3)OCCO4)n2)cc1 = 89.5
Cc1ccc(O)cc1Nc1ccnc2cc(-c3ccccn3)ccc12 = 91.9

Item under review: N#Cc1c(NC(=O)c2ccc(F)cc2)sc2c1CCCC2 . Reported inhibition? -1.78

----------
- Assay System: Rhodopsin kinase GRK7 (Homo sapiens);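 note: reported figures are mean percent inhibition of GRK7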
- Cond: at 0.1 µM
Metric Name: inhibition (%)
Please respond with the number in % and leave the unit unwritten.

Consider the following illustrative entries.
COc1cc(/C=N/Nc2ncnc3[nH]ncc23)ccc1O = 2.24
Fc1ccc(-c2nn3ncccc3c2-c2ccnc(Nc3ccc4c(c3)OCCO4)n2)cc1 = 1.38
NS(=O)(=O)c1ccc(Nc2ncc(-c3ccccc3)o2)cc1 = 2.42
CS(=O)(=O)CCNCc1coc(-c2ccc3ncnc(Nc4ccc(OCc5ccccc5)cc4)c3c2)c1 = 6.27

Next molecule, inhibition to be filled in.
Item under review: COC(=O)Nc1nc2ccc(S(=O)(=O)c3ccc(NC(=O)Nc4cc(C(F)(F)F)ccc4F)cc3)cc2[nH]1 . Reported inhibition? 4.02

----------
- Assay System: Tyrosine-protein kinase Blk (Homo sapiens) (UniProt P51451);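 note: reported value is the mean percent inhibition of BLK kinase activity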
- Sequence (P51451 2-505 limits assumed): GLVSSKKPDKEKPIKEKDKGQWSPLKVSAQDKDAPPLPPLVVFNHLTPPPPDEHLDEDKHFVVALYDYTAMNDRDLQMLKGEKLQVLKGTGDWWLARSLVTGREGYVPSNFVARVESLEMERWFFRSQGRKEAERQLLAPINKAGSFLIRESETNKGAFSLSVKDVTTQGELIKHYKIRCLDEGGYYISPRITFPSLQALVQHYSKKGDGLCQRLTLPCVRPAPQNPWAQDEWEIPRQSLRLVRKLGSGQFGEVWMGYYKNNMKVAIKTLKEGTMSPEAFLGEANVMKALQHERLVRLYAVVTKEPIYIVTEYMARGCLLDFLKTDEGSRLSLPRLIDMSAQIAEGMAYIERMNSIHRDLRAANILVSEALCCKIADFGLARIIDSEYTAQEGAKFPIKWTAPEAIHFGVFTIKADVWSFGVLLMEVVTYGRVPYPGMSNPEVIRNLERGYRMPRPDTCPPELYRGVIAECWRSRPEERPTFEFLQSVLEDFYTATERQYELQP
- Cond: at 0.1 µM
Quick reference: inhibition of the listed items.
Please respond with the number in % and leave the unit unwritten.

Item under review: COC(=O)Nc1nc2ccc(S(=O)(=O)c3ccc(NC(=O)Nc4cc(C(F)(F)F)ccc4F)cc3)cc2[nH]1 . Reported inhibition? 1.71

Item under review: Nc1nc(-c2cccc(Cl)c2)c(-c2ccc3ncccc3n2)s1 . Reported inhibition? 3.51

Item under review: Fc1ccc(-c2nn3ccccc3c2-c2ccncc2)cc1 . Reported inhibition? 0.92

Item under review: CS(=O)(=O)CCNCc1ccc(-c2ccc3ncnc(Nc4ccc(OCc5ccccc5)c(C(F)(F)F)c4)c3c2)o1 . Reported inhibition? 3.53

Item under review: Cc1cccc2c1NC(=O)/C2=N\Nc1ccc(S(N)(=O)=O)cc1 . Reported inhibition? 1.72

Item under review: COc1cccc(-n2ncc3c(N/N=C/c4ccc(F)cc4)ncnc32)c1 . Reported inhibition? 4.91

Item under review: COc1ccc(CNC(=O)c2ccc(-c3cc(-c4nnc(C)o4)ccc3C)cc2)cc1 . Reported inhibition? 2.54

----------
Quick reference: inhibition of the listed items.
- Assay System: Dual specificity protein kinase CLK2 (Homo sapiens) (UniProt P49760)
- Sequence (P49760 whole entry, looked up): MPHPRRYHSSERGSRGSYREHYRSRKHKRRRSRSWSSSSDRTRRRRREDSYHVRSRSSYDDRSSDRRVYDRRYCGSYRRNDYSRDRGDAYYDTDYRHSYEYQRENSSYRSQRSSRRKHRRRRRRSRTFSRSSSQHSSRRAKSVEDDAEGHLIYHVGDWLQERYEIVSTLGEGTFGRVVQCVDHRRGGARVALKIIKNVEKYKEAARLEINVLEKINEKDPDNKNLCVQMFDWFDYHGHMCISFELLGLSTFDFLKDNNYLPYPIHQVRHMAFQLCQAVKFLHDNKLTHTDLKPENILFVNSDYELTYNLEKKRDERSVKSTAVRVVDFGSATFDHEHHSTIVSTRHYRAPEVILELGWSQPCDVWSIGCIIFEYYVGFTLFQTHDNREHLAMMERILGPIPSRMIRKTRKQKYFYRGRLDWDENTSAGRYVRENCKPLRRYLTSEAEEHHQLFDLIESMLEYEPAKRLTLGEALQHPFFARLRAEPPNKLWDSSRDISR
- Cond: at 0.1 µM
- Description: GSK_PKIS: CLK2 mean inhibition at 0.1 uM [Nanosyn]
Please respond with the number in % and leave the unit unwritten.

Consider the following illustrative entries.
COC(=O)c1sc(-n2cnc3cc(OC)c(OC)cc32)cc1OCc1ccccc1C(F)(F)F = 1.6
CNC(=O)c1cncc(/C=C/c2ccccc2Cl)c1 = -0.38
Clc1ccc(-c2nn3ncccc3c2-c2ccnc(Nc3ccccc3)n2)cc1 = -0.96
O=S(=O)(CCNCc1ccc(-c2ccc3ncnc(Nc4ccc(OCc5cccc(F)c5)c(Cl)c4)c3c2)o1)c1ccccc1 = 0.01

Next compound, inhibition to be filled in.
Item under review: c1ccc(COc2ccc(Nc3ncnc4ccc(-c5ccco5)cc34)cc2)cc1 . Reported inhibition? 0.31
